Taken from patent US6987114B1.

Tested on: HIV
run.description: microbe, parasite or virus in culture
Type: cell-based
settings: Human immunodeficiency virus 1, MT4; HIV-infected MT-4 cells, MTT method, 4 or 5 days at 37° C.; read-out: ED50 (the source's name)
Response field class: enum, chosen by comparing EC50 against bottom range (below 0.009 µg/mL), center range (0.009 µg/mL to below 0.03 µg/mL), top range (0.03 µg/mL or more)

Worked set:
structure.smiles | label
COc1cccc(Cn2c(Oc3cc(C)cc(C)c3)c(C(C)C)c(=O)[nH]c2=O)c1 | bottom range
CCc1c(C(=O)c2cc(C)cc(C)c2)n(Cc2ccccc2)c(=O)[nH]c1=O | bottom range
Cc1cc(C)cc(C(=O)c2c(C(C)C)c(=O)[nH]c(=O)n2Cc2cccc(Br)n2)c1 | center range
CCc1c(Oc2cc(C)cc(C)c2)n(Cc2ccccc2C#N)c(=O)[nH]c1=O | top range
CCc1c(C(=O)c2cc(C)cc(C)c2)n(Cn2nnc3ccccc32)c(=O)[nH]c1=O | center range
CCc1c(Oc2cc(C)cc(C)c2)n(Cc2cc(C(F)(F)F)cc(C(F)(F)F)c2)c(=O)[nH]c1=O | top range
Cc1cc(C)cc(Sc2c(C(C)C)c(=O)[nH]c(=O)n2Cc2ccc3c(c2)C(=O)c2ccccc2C3=O)c1 | top range
Cc1cc(C)cc(C(=O)c2c(C(C)C)c(=O)[nH]c(=O)n2Cc2ccc3c(c2)C(=O)c2ccccc2C3=O)c1 | center range

### Prompt Consider CCc1c(C(=O)c2cc(C)cc(C)c2)n(Cc2cccc(Cl)n2)c(=O)[nH]c1=O . To which EC50 class does it belong?
### Response center range

### Prompt Consider CCc1c(Oc2cc(C)cc(C)c2)n(Cc2occc2C(=O)OC)c(=O)[nH]c1=O . To which EC50 class does it belong?
### Response top range

### Prompt Consider CCc1c(Sc2cc(C)cc(C)c2)n(CC2CCC2)c(=O)[nH]c1=O . To which EC50 class does it belong?
### Response center range

### Prompt Consider Cc1cc(C)cc(Sc2c(C(C)C)c(=O)[nH]c(=O)n2Cc2ccccc2C#N)c1 . To which EC50 class does it belong?
### Response top range

### Prompt Consider Cc1cc(C)cc(C(=O)c2c(C(C)C)c(=O)[nH]c(=O)n2Cc2ccc(OC(F)(F)F)cc2)c1 . To which EC50 class does it belong?
### Response bottom range

### Prompt Consider COc1cccc(Cn2c(C(=O)c3cc(C)cc(C)c3)c(C(C)C)c(=O)[nH]c2=O)c1 . To which EC50 class does it belong?
### Response bottom range

### Prompt Consider CCc1c(Oc2cc(C)cc(C)c2)n(Cc2ccc(OC(F)(F)F)cc2)c(=O)[nH]c1=O . To which EC50 class does it belong?
### Response top range
